biological target: Monoacylglycerol lipase ABHD6 (Mus musculus) (UniProt Q8R2Y0); test: serine hydrolase inhibition in mouse brain membranes, late-stage follow-up, selectivity assay for DAGLb inhibitor project, biochemical, gel-based competitive ABPP, fluorescence, set 2 (AID 602323); conditions: mouse brain membrane, at 1 µM, hits give high values
Sequence (Q8R2Y0 whole entry, looked up): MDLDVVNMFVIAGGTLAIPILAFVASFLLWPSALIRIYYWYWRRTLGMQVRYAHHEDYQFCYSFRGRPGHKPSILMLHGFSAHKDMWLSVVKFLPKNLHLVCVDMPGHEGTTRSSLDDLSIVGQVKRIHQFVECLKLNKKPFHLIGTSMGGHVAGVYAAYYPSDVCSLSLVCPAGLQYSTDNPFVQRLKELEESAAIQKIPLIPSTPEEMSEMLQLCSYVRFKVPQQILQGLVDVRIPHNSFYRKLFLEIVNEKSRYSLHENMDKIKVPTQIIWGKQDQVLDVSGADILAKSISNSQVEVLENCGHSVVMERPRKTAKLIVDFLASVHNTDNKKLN
VALUE TYPE: inhibition (%)

>  <COMPOUND>
O=C(N1CCCCC1Cc1ccccc1)n1cc(-c2ccc(-c3ccc(OC(F)(F)F)cc3)cc2)nn1 (stereo unspecified)

>  <VALUE TYPE>
inhibition

>  <NUMERIC RESULT>
90

$$$$
>  <COMPOUND>
O=C(N1CCCCC1Cc1ccccc1)n1cc(-c2ccc(-c3ccc(C(F)(F)F)cc3)cc2)nn1 (stereo unspecified)

>  <VALUE TYPE>
inhibition

>  <NUMERIC RESULT>
80

$$$$
>  <COMPOUND>
O=C(N1CCCCC1Cc1ccccc1)n1cc(-c2ccccc2-c2ccccc2)nn1 (stereo unspecified)

>  <VALUE TYPE>
inhibition

>  <NUMERIC RESULT>
95

$$$$
>  <COMPOUND>
O=C(N1CCCCC1Cc1ccccc1)n1cc(-c2ccc(-c3ccoc3)cc2)nn1 (stereo unspecified)

>  <VALUE TYPE>
inhibition

>  <NUMERIC RESULT>
90

$$$$
>  <COMPOUND>
CC(C)(C)OC(=O)NCCCCCN(CCc1ccccc1)C(=O)n1cc(-c2ccc(OC(F)(F)F)cc2)nn1

>  <VALUE TYPE>
inhibition

>  <NUMERIC RESULT>
90

$$$$
>  <COMPOUND>
O=C(N1CCCCC1Cc1ccccc1)n1cc(-c2ccc(-c3ccccc3C(F)(F)F)cc2)nn1 (stereo unspecified)

>  <VALUE TYPE>
inhibition

>  <NUMERIC RESULT>
90

$$$$
>  <COMPOUND>
CC(C)CN(CCc1ccccc1)C(=O)n1cc(-c2ccc(OC(F)(F)F)cc2)nn1

>  <VALUE TYPE>
inhibition

>  <NUMERIC RESULT>
95

$$$$
>  <COMPOUND>
O=C(N1CCCCC1Cc1ccccc1)n1ncc(C(O)(c2ccccc2)c2ccccc2)n1 (stereo unspecified)

>  <VALUE TYPE>
inhibition

>  <NUMERIC RESULT>
90

$$$$
>  <COMPOUND>
O=C(N1CCCCC1Cc1ccccc1)n1cc(-c2ccc(-c3ccccc3Cl)cc2)nn1 (stereo unspecified)

>  <VALUE TYPE>
inhibition

>  <NUMERIC RESULT>
90

$$$$
>  <COMPOUND>
O=C(N1CCCCC1Cc1ccccc1)n1cc(-c2ccc(Br)cc2)nn1 (stereo unspecified)

>  <VALUE TYPE>
inhibition

>  <NUMERIC RESULT>
98

$$$$
>  <COMPOUND>
COc1ccccc1-c1ccc(-c2cn(C(=O)N3CCCCC3Cc3ccccc3)nn2)cc1 (stereo unspecified)

>  <VALUE TYPE>
inhibition

>  <NUMERIC RESULT>
95

$$$$
>  <COMPOUND>
O=C(N1CCCCC1Cc1ccccc1)n1cc(-c2ccc(OC(F)(F)F)cc2)nn1 (stereo unspecified)

>  <VALUE TYPE>
inhibition

>  <NUMERIC RESULT>
90

$$$$
>  <COMPOUND>
O=C(N1CCCCC1Cc1ccccc1)n1cc(-c2cccc(-c3ccccc3)c2)nn1 (stereo unspecified)

>  <VALUE TYPE>
inhibition

>  <NUMERIC RESULT>
95

$$$$
>  <COMPOUND>
O=C(N(CCc1ccccc1)Cc1ccco1)n1cc(-c2ccc(OC(F)(F)F)cc2)nn1

>  <VALUE TYPE>
inhibition

>  <NUMERIC RESULT>
95

$$$$
>  <COMPOUND>
O=C(N1CCCCC1Cc1ccccc1)n1cc(-c2ccc(-c3ccccc3CO)cc2)nn1 (stereo unspecified)

>  <VALUE TYPE>
inhibition

>  <NUMERIC RESULT>
95

$$$$
>  <COMPOUND>
O=C(c1ccc(-c2ccc(-c3cn(C(=O)N4CCCCC4Cc4ccccc4)nn3)cc2)cc1)N1CCCCC1 (stereo unspecified)

>  <VALUE TYPE>
inhibition

>  <NUMERIC RESULT>
90

$$$$
